These records show Hill Slope (furoic acid species) for RpMetAP1 (Rickettsia prowazekii).
Give the value as a plain number.

See these solved cases before continuing.
# compound, Hill Slope (furoic acid species)
measured = [
    ("O=C(O)c1ccc(-c2ccccc2C(F)(F)F)o1 [Compound 6]", 2.1),
    ("O=C(O)c1ccc(-c2cccc([N+](=O)[O-])c2)o1 [Compound 2]", 1.0),
    ("Cc1ccc(-c2ccc(C(=O)O)o2)cc1 [Compound 5]", 1.0),
]

Query :: Name the reported Hill Slope (furoic acid species) value associated with the compound Cc1cccc(-c2ccc(C(=O)O)o2)c1 [Compound 9]
Result :: 1.0

Query :: # iterate: O=C(O)c1ccc(-c2cccc(C(F)(F)F)c2)o1 [Compound 3]
Result :: 1.0

Query :: How about O=C(O)c1ccc(-c2ccc(Br)cc2)o1 [Compound 7] ?
Result :: 1.0

Query :: Here is the next compound: Cc1ccccc1-c1ccc(C(=O)O)o1 [Compound 8]
Result :: 1.3

Query :: And O=C(O)c1ccc(-c2ccccc2)o1 [Compound 4, 5-phenyl-2-furoic acid] ?
Result :: 1.0

* * *

Hi! I'm sharing some Hill Slope (quinolinol species) results obtained with RpMetAP1 (Rickettsia prowazekii, UniProt Q9ZCD3).
Sequence (Q9ZCD3 whole entry, looked up): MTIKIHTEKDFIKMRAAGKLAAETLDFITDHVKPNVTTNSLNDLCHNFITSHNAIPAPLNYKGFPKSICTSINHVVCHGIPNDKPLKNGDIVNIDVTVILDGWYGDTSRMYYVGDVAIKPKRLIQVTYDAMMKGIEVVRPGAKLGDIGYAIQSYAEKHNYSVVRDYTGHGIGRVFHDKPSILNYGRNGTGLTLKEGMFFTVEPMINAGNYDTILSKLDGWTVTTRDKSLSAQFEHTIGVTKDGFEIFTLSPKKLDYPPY
I only need the number, thanks.

Some entries whose results are on file:
# compound, measurement-kind, measured-result
data = [
    ("Oc1ccc(Cl)c2cccnc12 [Compound 22, 5-chloro-8-quinolinol]", "Hill Slope (quinolinol species)", 1.9),
    ("Cc1ccc2cccc(O)c2n1 [Compound 20, 2-methyl-8-quinolinol]", "Hill Slope (quinolinol species)", 1.1),
    ("O=[N+]([O-])c1cc(CN2CCOCC2)c(O)c2ncccc12 [Compound 26]", "Hill Slope (quinolinol species)", 1.0),
    ("O=[N+]([O-])c1ccc(O)c2ncccc12 [Compound 23, nitroxoline, reference compound]", "Hill Slope (quinolinol species)", 1.7),
]

As a next step, examine the compound that follows.
Query :: For RpMetAP1 (Rickettsia prowazekii, UniProt Q9ZCD3), provide Hill Slope (quinolinol species) of Oc1c(CN2CCOCC2)cc(Cl)c2cccnc12 [Compound 24] please.
Result :: 1.5
